# tested_system: Human HDAC5 (Homo sapiens, UniProt Q9UQL6)
# Construct: full length with C-terminal His tag, MW=51.1 kDa; His (C); host or cells: baculovirus expression system
# Sequence (Q9UQL6 656-1122 limits assumed): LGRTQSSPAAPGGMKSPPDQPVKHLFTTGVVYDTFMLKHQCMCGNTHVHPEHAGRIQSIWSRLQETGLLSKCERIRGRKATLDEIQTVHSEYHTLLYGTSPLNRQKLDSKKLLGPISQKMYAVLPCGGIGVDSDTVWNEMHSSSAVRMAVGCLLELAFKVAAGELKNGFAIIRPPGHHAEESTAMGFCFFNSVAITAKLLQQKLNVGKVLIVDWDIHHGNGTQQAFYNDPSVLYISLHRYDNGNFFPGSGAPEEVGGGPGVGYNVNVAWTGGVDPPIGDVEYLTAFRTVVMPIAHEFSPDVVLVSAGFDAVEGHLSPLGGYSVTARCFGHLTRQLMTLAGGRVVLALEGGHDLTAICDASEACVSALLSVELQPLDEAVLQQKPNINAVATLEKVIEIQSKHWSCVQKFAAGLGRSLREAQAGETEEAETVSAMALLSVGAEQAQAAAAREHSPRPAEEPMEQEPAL
# protocol: HDAC5 biochemical assay, class IIa-specific substrate
# measurement_context: read-out: HDAC Isoform IC50 (nM) 5
observation_type: IC50

INSERT INTO results (compound_structure_string, result) VALUES
  ('FC(F)(F)c1nc(-c2ccc(CN(c3cnccn3)c3cnc4[nH]ccc4n3)s2)no1', '≤ 500 nM'),
  ('COC1CN(Cc2ccnc(N(Cc3ccc(-c4noc(C(F)(F)F)n4)s3)c3cnccn3)c2)C1', '≤ 1000 nM'),
  ('C[C@H]1CCCN1C(=O)c1cnnc(N(Cc2ccc(-c3noc(C(F)(F)F)n3)s2)c2cnccn2)c1', '≤ 1000 nM'),
  ('Fc1cc(-c2noc(C(F)(F)F)n2)sc1CN(c1cnccn1)c1cnccn1', '≤ 500 nM'),
  ('FC(F)(F)c1nc(-c2ccc(CN(c3cnccn3)c3cncnc3C3CC3)s2)no1', '≤ 500 nM'),
  ('FC(F)(F)c1nc(-c2ccc(CN(c3cnc(C4CC4)nc3)c3cnccn3)s2)no1', '≤ 1000 nM'),
  ('Fc1ccnc(N(Cc2ccc(-c3noc(C(F)(F)F)n3)s2)c2cnccn2)c1', '≤ 10000 nM'),
  ('FC(F)(F)c1nc(-c2ccc(CN(c3cnccn3)c3nccc4nccnc34)s2)no1', '≤ 10000 nM'),
  ('O=C(c1ccc(N(Cc2ccc(-c3noc(C(F)(F)F)n3)s2)c2cnccn2)nn1)N1CC(O)(C(F)(F)F)C1', '≤ 500 nM'),
  ('O=C(c1cnnc(N(Cc2ccc(-c3noc(C(F)(F)F)n3)s2)c2cnccn2)c1)N1CCC(F)(F)CC1', '≤ 1000 nM'),
  ('CNC(=O)c1cnnc(N(Cc2ccc(-c3noc(C(F)(F)F)n3)s2)c2cnccn2)c1', '≤ 1000 nM'),
  ('Cc1cncnc1N(Cc1ccc(-c2noc(C(F)(F)F)n2)s1)c1cnccn1', '≤ 1000 nM'),
  ('Cc1cc(C)nc(N(Cc2ccc(-c3noc(C(F)(F)F)n3)s2)c2cnccn2)n1', '≤ 10000 nM'),
  ('O=C(c1cncc(N(Cc2ccc(-c3noc(C(F)(F)F)n3)s2)c2cnccn2)c1)N1CCOCC1', '≤ 500 nM'),
  ('FC(F)(F)c1nc(-c2ccc(CN(c3ccncc3)c3cnccn3)s2)no1', '≤ 500 nM'),
  ('FC(F)(F)c1nc(-c2ccc(CN(c3cnccn3)c3ncccc3C3CC3)s2)no1', '≤ 500 nM');

====

# tested_system: Human HDAC1 (Homo sapiens, UniProt Q13547)
# Construct: full length with C-terminal His-tag and C-terminal FLAG-tag; His (C); FLAG (C); host or cells: baculovirus expression system
# Sequence (Q13547 whole entry): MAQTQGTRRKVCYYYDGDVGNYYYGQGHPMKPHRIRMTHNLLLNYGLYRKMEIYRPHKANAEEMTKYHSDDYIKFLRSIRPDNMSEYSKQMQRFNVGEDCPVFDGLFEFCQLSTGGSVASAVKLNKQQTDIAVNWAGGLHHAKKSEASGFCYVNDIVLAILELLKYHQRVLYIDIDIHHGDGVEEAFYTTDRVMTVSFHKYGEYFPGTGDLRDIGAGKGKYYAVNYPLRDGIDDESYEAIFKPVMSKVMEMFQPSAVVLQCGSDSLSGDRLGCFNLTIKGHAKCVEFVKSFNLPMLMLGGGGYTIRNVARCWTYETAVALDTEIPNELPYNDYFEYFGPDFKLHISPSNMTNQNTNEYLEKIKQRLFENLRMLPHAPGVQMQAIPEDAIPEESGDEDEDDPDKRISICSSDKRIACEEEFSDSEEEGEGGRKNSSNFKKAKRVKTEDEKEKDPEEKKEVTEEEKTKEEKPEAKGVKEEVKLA
# protocol: HDAC1 biochemical assay, AMC-labeled peptide substrate
# measurement_context: read-out: HDAC Isoform IC50 (nM) 1
observation_type: IC50

INSERT INTO results (compound_structure_string, result) VALUES
  ('FC(F)(F)c1cncc(N(Cc2ccc(-c3noc(C(F)(F)F)n3)s2)c2cnccn2)c1', '> 10000 nM'),
  ('O=C(c1cnnc(N(Cc2ccc(-c3noc(C(F)(F)F)n3)s2)c2cnccn2)c1)N1CC(C(F)F)C1', '≤ 10000 nM'),
  ('NC(=O)c1nccnc1N(Cc1ccc(-c2noc(C(F)(F)F)n2)s1)c1cnccn1', '> 10000 nM'),
  ('COC1CN(C(=O)c2cnnc(N(Cc3ccc(-c4noc(C(F)(F)F)n4)s3)c3cnccn3)c2)C1', '> 10000 nM'),
  ('Fc1ccnc(N(Cc2ccc(-c3noc(C(F)(F)F)n3)s2)c2cnccn2)c1', '> 10000 nM'),
  ('O=C(O)c1ccc(N(Cc2sc(-c3noc(C(F)(F)F)n3)cc2F)c2cnccn2)nn1', '> 10000 nM'),
  ('CS(=O)(=O)c1nccc(N(Cc2ccc(-c3noc(C(F)(F)F)n3)s2)c2cnccn2)n1', '≤ 10000 nM'),
  ('COCc1nccnc1N(Cc1ccc(-c2noc(C(F)(F)F)n2)s1)c1cnccn1', '> 10000 nM');
